# Test system: Staphylococcus aureus
# assay-remarks: Antibacterial activity against methicillin-resistant Staphylococcus aureus isolate 1 after 18 hrs by agar dilution method
# Assay type: functional
# measurement-parameters: isolate 1, 18 h
measured-parameter: MIC (µg/mL)
Respond with the bare value in µg/mL.

Challenge: Recall the recorded MIC for O=C1OC(Cn2sccc2=O)CN1c1ccc(Cl)cc1 (stereo not given) with Staphylococcus aureus and state it.
Response given: 12.5

Challenge: Recall the recorded MIC for O=C1OC(Cn2sccc2=O)CN1c1ccc(F)cc1 (stereo not given) with Staphylococcus aureus and state it.
Response given: 10

Challenge: Recall the recorded MIC for O=C1OC(Cn2sccc2=O)CN1Cc1ccccc1 (stereo not given) with Staphylococcus aureus and state it.
Response given: 8

Challenge: Recall the recorded MIC for O=C1OC(Cn2sccc2=O)CN1c1ccccc1 (stereo not given) with Staphylococcus aureus and state it.
Response given: 6

Challenge: Recall the recorded MIC for CC(=O)NC[C@H]1CN(c2ccc(N3CCOCC3)c(F)c2)C(=O)O1 [LINEZOLID] with Staphylococcus aureus and state it.
Response given: 2

---

# assay-remarks: Cytotoxicity against mouse NIH/3T3 cells after 24 hrs by MTT assay
# Type: cell-based
# measurement-parameters: NIH3T3, 24 h
Please go through the items and note down their IC50.
Respond with the bare value in µg/mL.

Challenge: Name the recorded IC50 for O=C1OC(Cn2sccc2=O)CN1c1ccccc1 (stereo not given) .
Response given: 162

Challenge: Name the recorded IC50 for CC(=O)NC[C@H]1CN(c2ccc(N3CCOCC3)c(F)c2)C(=O)O1 .
Response given: 465

Challenge: Name the recorded IC50 for O=C1OC(Cn2sccc2=O)CN1c1ccc(Cl)cc1 (stereo not given) .
Response given: 194

Challenge: Name the recorded IC50 for O=C1OC(Cn2sccc2=O)CN1c1ccc(F)cc1 (stereo not given) .
Response given: 174

Challenge: Name the recorded IC50 for O=C1OC(Cn2sccc2=O)CN1Cc1ccccc1 (stereo not given) .
Response given: 273

---

# Tested on: Salmonella typhimurium
# assay-remarks: Antibacterial activity against Salmonella Typhimurium ATCC 1639 after 18 hrs by agar dilution method
# Format: functional, Salmonella enterica subsp. enterica serovar Typhimurium
# measurement-parameters: Salmonella enterica, ATCC 1639, 18 h
For each record, check the reported MIC: if it is below 10 µg/mL write MET, else write NOT MET.

Challenge: Answer whether the molecule O=c1cc(Cl)sn1-c1ccccc1 has MIC strictly less than 10 µg/mL
Response given: MET

Challenge: Answer whether the molecule O=c1ccsn1-c1ccc(F)cc1 has MIC strictly less than 10 µg/mL
Response given: NOT MET

Challenge: Answer whether the molecule CN[C@H](CC(C)C)C(=O)N[C@H]1C(=O)N[C@@H](CC(N)=O)C(=O)N[C@H]2C(=O)N[C@H]3C(=O)N[C@H](C(=O)N[C@H](C(=O)O)c4cc(O)cc(O)c4-c4cc3ccc4O)[C@H](O)c3ccc(c(Cl)c3)Oc3cc2cc(c3O[C@@H]2O[C@H](CO)[C@@H](O)[C@H](O)[C@H]2O[C@H]2C[C@](C)(N)[C@H](O)[C@H](C)O2)Oc2ccc(cc2Cl)[C@H]1O has MIC strictly less than 10 µg/mL
Response given: NOT MET

Challenge: Answer whether the molecule CC(=O)c1ccc(N2CC(Cn3sccc3=O)OC2=O)cc1 (configuration not stated) has MIC strictly less than 10 µg/mL
Response given: NOT MET

Challenge: Answer whether the molecule O=c1cc(Cl)sn1-c1ccc(Cl)cc1 has MIC strictly less than 10 µg/mL
Response given: MET

Challenge: Answer whether the molecule O=c1ccsn1-c1ccc(C(F)(F)F)cc1 has MIC strictly less than 10 µg/mL
Response given: NOT MET

Challenge: Answer whether the molecule O=C1OC(Cn2sccc2=O)CN1c1cccc(Cl)c1 (configuration not stated) has MIC strictly less than 10 µg/mL
Response given: NOT MET

Challenge: Answer whether the molecule O=C1OC(Cn2sccc2=O)CN1c1ccc(N2CCOCC2)c(F)c1 (configuration not stated) has MIC strictly less than 10 µg/mL
Response given: NOT MET

Challenge: Answer whether the molecule COc1ccc(N2CC(Cn3sccc3=O)OC2=O)cc1 (configuration not stated) has MIC strictly less than 10 µg/mL
Response given: NOT MET

Challenge: Answer whether the molecule CC(=O)c1ccc(-n2sccc2=O)cc1 has MIC strictly less than 10 µg/mL
Response given: NOT MET

Challenge: Answer whether the molecule O=c1ccsn1-c1cccc(F)c1 has MIC strictly less than 10 µg/mL
Response given: NOT MET

Challenge: Answer whether the molecule Cc1ccc(-n2sccc2=O)cc1 has MIC strictly less than 10 µg/mL
Response given: NOT MET

---

# Tested on: Salmonella typhimurium
# assay-remarks: Antibacterial activity against Salmonella Typhimurium ATCC 1639 after 18 hrs by agar dilution method
# Format: functional, Salmonella enterica subsp. enterica serovar Typhimurium
# measurement-parameters: Salmonella enterica, ATCC 1639, 18 h
measured-parameter: MIC (µg/mL)
Respond with the bare value in µg/mL.

Challenge: Name the recorded MIC for O=C1OC(Cn2sccc2=O)CN1c1cccc(F)c1 (stereo not drawn) .
Response given: 100

Challenge: Name the recorded MIC for O=C1OC(Cn2sccc2=O)CN1Cc1ccccc1 (stereo not drawn) .
Response given: 12.5

Challenge: Name the recorded MIC for O=c1ccsn1-c1ccc(Cl)cc1 .
Response given: 10

Challenge: Name the recorded MIC for O=c1ccsn1-c1cccc(Cl)c1 .
Response given: 25

Challenge: Name the recorded MIC for COc1ccc(-n2sc(Cl)cc2=O)cc1 .
Response given: 1.5

Challenge: Name the recorded MIC for O=C1OC(Cn2sccc2=O)CN1c1ccccc1 (stereo not drawn) .
Response given: 0.01

Challenge: Name the recorded MIC for CC(=O)c1ccc(-n2sc(Cl)cc2=O)cc1 .
Response given: 25

Challenge: Name the recorded MIC for O=c1ccsn1-c1ccc(N2CCOCC2)c(F)c1 .
Response given: 25

Challenge: Name the recorded MIC for O=C1OC(Cn2sccc2=O)CN1c1ccc(Cl)cc1 (stereo not drawn) .
Response given: 12.5

Challenge: Name the recorded MIC for Cc1ccc(N2CC(Cn3sccc3=O)OC2=O)cc1 (stereo not drawn) .
Response given: 25

Challenge: Name the recorded MIC for Cc1ccc(-n2sc(Cl)cc2=O)cc1 .
Response given: 5

Challenge: Name the recorded MIC for O=c1ccsn1Cc1ccccc1 .
Response given: 12.5

Challenge: Name the recorded MIC for O=C1OC(Cn2sccc2=O)CN1c1ccc(F)cc1 (stereo not drawn) .
Response given: 0.75

Challenge: Name the recorded MIC for COc1ccc(-n2sccc2=O)cc1 .
Response given: 12.5

Challenge: Name the recorded MIC for O=C(O)c1cn(C2CC2)c2cc(N3CCNCC3)c(F)cc2c1=O [CIPROFLOXACIN] .
Response given: 0.01

Challenge: Name the recorded MIC for O=C1OC(Cn2sccc2=O)CN1c1ccc(C(F)(F)F)cc1 (stereo not drawn) .
Response given: 100

Challenge: Name the recorded MIC for O=c1cc(Cl)sn1-c1ccc(F)cc1 .
Response given: 6

Challenge: Name the recorded MIC for O=c1cc(Cl)sn1-c1ccc(C(F)(F)F)cc1 .
Response given: 12.5

Challenge: Name the recorded MIC for O=c1cc(Cl)sn1-c1cccc(Cl)c1 .
Response given: 12.5

Challenge: Name the recorded MIC for O=c1ccsn1-c1ccccc1 .
Response given: 25

Challenge: Name the recorded MIC for O=c1cc(Cl)sn1-c1ccc(N2CCOCC2)c(F)c1 .
Response given: 25

Challenge: Name the recorded MIC for O=c1cc(Cl)sn1Cc1ccccc1 .
Response given: 12.5
